- assayName: Selectivity ratio of HC50 for hemolytic activity in human RBC to MIC for antifungal activity against Candida albicans CARG5
- Assay type: toxicity
- conditionDetails: red blood cells (erythrocytes)
quantityMeasured: selectivity ratio

[Q] For the compound CCCCCCCCCCCCCCCC(=O)N[C@@H](CCCCN)C(=O)N[C@@H](Cc1ccccc1)CN(CC(N)=O)C(=O)CN , report selectivity ratio.
[A] ≤ 125

[Q] For the compound CCCCCCCCCCCCCCCCCC(=O)N[C@@H](CCCCN)C(=O)N[C@@H](Cc1ccccc1)CN(CC(N)=O)C(=O)CCN , report selectivity ratio.
[A] ≤ 125

[Q] For the compound CCCCCCCCCCCCCCCC(=O)N[C@@H](CCCN)C(=O)N[C@@H](Cc1ccccc1)CN(CC(N)=O)C(=O)CCN , report selectivity ratio.
[A] ≤ 125

[Q] For the compound CCCCCCCC/C=C\CCCCCCCC(=O)N[C@@H](CCCCN)C(=O)N[C@@H](Cc1ccccc1)CN(CC(N)=O)C(=O)CCN , report selectivity ratio.
[A] ≤ 125

[Q] For the compound CCCCCCCCCCCCCCCC(=O)N[C@@H](CCCCN)C(=O)N[C@@H](Cc1ccccc1)CN(CC(N)=O)C(=O)CCN , report selectivity ratio.
[A] ≤ 125

---

- System: Aspergillus fumigatus
- assayName: Antifungal activity against Aspergillus fumigatus shjt40 assessed as fungal growth inhibition by broth microdilution assay
- Assay type: functional
quantityMeasured: MIC50 (µg/mL)
Your answer is read as µg/mL, so omit the unit and give the number.

[Q] For the compound CCCCCCCCCCCCCCCCCC(=O)N[C@@H](CCCCN)C(=O)N[C@@H](Cc1ccccc1)CN(CC(N)=O)C(=O)CCN , report MIC50.
[A] 8

[Q] For the compound CCCCCCCCCCCCCCCC(=O)N[C@@H](CCCN)C(=O)N[C@@H](Cc1ccccc1)CN(CC(N)=O)C(=O)CCN , report MIC50.
[A] 4

---

- Test system: Cryptococcus neoformans
- assayName: Antifungal activity against Cryptococcus neoformans 5-FC assessed as fungal growth inhibition by broth microdilution assay
- Type: functional
quantityMeasured: MIC50 (µg/mL)
Your answer is read as µg/mL, so omit the unit and give the number.

[Q] For the compound CCCCCCCCCCCCCCCCCC(=O)N[C@@H](CCCCN)C(=O)N[C@@H](Cc1ccccc1)CN(CC(N)=O)C(=O)CCN , report MIC50.
[A] 2

[Q] For the compound OC(Cn1cncn1)(Cn1cncn1)c1ccc(F)cc1F , report MIC50.
[A] 2

[Q] For the compound CCCCCCCCCCCCCCCC(=O)N[C@@H](CCCCN)C(=O)N[C@@H](Cc1ccccc1)CN(CC(N)=O)C(=O)CCN , report MIC50.
[A] 4

[Q] For the compound CCCCCCCCCCCCCCCC(=O)N[C@@H](CCCN)C(=O)N[C@@H](Cc1ccccc1)CN(CC(N)=O)C(=O)CCN , report MIC50.
[A] 2

[Q] For the compound CCCCCCCC/C=C\CCCCCCCC(=O)N[C@@H](CCCCN)C(=O)N[C@@H](Cc1ccccc1)CN(CC(N)=O)C(=O)CCN , report MIC50.
[A] 4

[Q] For the compound CCCCCCCCCCCCCCCC(=O)N[C@@H](CCCCN)C(=O)N[C@@H](Cc1ccccc1)CN(CC(N)=O)C(=O)CN , report MIC50.
[A] 8

---

- assayName: Hemolytic activity in human RBC incubated for 1 hr by microplate reader method
- Type: toxicity, cell-based, Erythrocyte
- conditionDetails: red blood cells (erythrocytes)
I'd be grateful if you could share measured HC50 at 1 h for these entries.

[Q] For the compound CCCCCCCCCCCCCCCC(=O)N[C@@H](CCCN)C(=O)N[C@@H](Cc1ccccc1)CN(CC(N)=O)C(=O)CCN , report HC50 at 1 h.
[A] > 250 µg/mL

[Q] For the compound CCCCCCCCCCCCCCCC(=O)N[C@@H](CCCCN)C(=O)N[C@@H](Cc1ccccc1)CN(CC(N)=O)C(=O)CN , report HC50 at 1 h.
[A] > 250 µg/mL

[Q] For the compound CCCCCCCCCCCCCCCC(=O)N[C@@H](CCCCN)C(=O)N[C@@H](Cc1ccccc1)CN(CC(N)=O)C(=O)CCN , report HC50 at 1 h.
[A] > 250 µg/mL

[Q] For the compound CCCCCCCC/C=C\CCCCCCCC(=O)N[C@@H](CCCCN)C(=O)N[C@@H](Cc1ccccc1)CN(CC(N)=O)C(=O)CCN , report HC50 at 1 h.
[A] > 250 µg/mL

[Q] For the compound CCCCCCCCCCCCCCCCCC(=O)N[C@@H](CCCCN)C(=O)N[C@@H](Cc1ccccc1)CN(CC(N)=O)C(=O)CCN , report HC50 at 1 h.
[A] > 250 µg/mL

---

- assayName: Cytotoxicity against HEK293T cells measured after 48 hrs by CCK8 assay
- Format: toxicity, cell-based, HEK-293T
- conditionDetails: human
quantityMeasured: IC50 at 48 h (µg/mL)
Your answer is read as µg/mL, so omit the unit and give the number.

[Q] For the compound CCCCCCCCCCCCCCCC(=O)N[C@@H](CCCN)C(=O)N[C@@H](Cc1ccccc1)CN(CC(N)=O)C(=O)CCN , report IC50 at 48 h.
[A] 32.2

---

- assayName: Selectivity ratio of HC50 for hemolytic activity in human RBC to MIC for antifungal activity against Aspergillus fumigatus shjt40
- Type: toxicity
- conditionDetails: red blood cells (erythrocytes)
I'd be grateful if you could share measured selectivity ratio for these entries.

[Q] For the compound CCCCCCCCCCCCCCCCCC(=O)N[C@@H](CCCCN)C(=O)N[C@@H](Cc1ccccc1)CN(CC(N)=O)C(=O)CCN , report selectivity ratio.
[A] ≤ 125

[Q] For the compound CCCCCCCCCCCCCCCC(=O)N[C@@H](CCCN)C(=O)N[C@@H](Cc1ccccc1)CN(CC(N)=O)C(=O)CCN , report selectivity ratio.
[A] ≤ 125

---

I'd be grateful if you could share measured MIC50 for these entries.
- Tested on: Aspergillus fumigatus
- assayName: Antifungal activity against Aspergillus fumigatus AF293 assessed as fungal growth inhibition by broth microdilution assay
- Format: functional
Your answer is read as µg/mL, so omit the unit and give the number.

[Q] For the compound CCCCCCCCCCCCCCCC(=O)N[C@@H](CCCN)C(=O)N[C@@H](Cc1ccccc1)CN(CC(N)=O)C(=O)CCN , report MIC50.
[A] 4

[Q] For the compound CCCCCCCCCCCCCCCCCC(=O)N[C@@H](CCCCN)C(=O)N[C@@H](Cc1ccccc1)CN(CC(N)=O)C(=O)CCN , report MIC50.
[A] 8

[Q] For the compound CCC(C)n1ncn(-c2ccc(N3CCN(c4ccc(OCC5COC(Cn6cncn6)(c6ccc(Cl)cc6Cl)O5)cc4)CC3)cc2)c1=O (centres undefined) , report MIC50.
[A] 1

---

- Test system: Candida albicans
- assayName: Antifungal activity against Candida albicans CARG5 assessed as fungal growth inhibition by broth microdilution assay
- Assay type: functional
I'd be grateful if you could share measured MIC50 for these entries.
Your answer is read as µg/mL, so omit the unit and give the number.

[Q] Provide Candida albicans MIC50 reading for CCCCCCCCCCCCCCCC(=O)N[C@@H](CCCCN)C(=O)N[C@@H](Cc1ccccc1)CN(CC(N)=O)C(=O)CN .
[A] 8

[Q] Provide Candida albicans MIC50 reading for CCCCCCCCCCCCCCCC(=O)N[C@@H](CCCN)C(=O)N[C@@H](Cc1ccccc1)CN(CC(N)=O)C(=O)CCN .
[A] 2

[Q] Provide Candida albicans MIC50 reading for CCCCCCCCCCCCCCCC(=O)N[C@@H](CCCCN)C(=O)N[C@@H](Cc1ccccc1)CN(CC(N)=O)C(=O)CCN .
[A] 4

[Q] Provide Candida albicans MIC50 reading for CCCCCCCC/C=C\CCCCCCCC(=O)N[C@@H](CCCCN)C(=O)N[C@@H](Cc1ccccc1)CN(CC(N)=O)C(=O)CCN .
[A] 4

[Q] Provide Candida albicans MIC50 reading for CCCCCCCCCCCCCCCCCC(=O)N[C@@H](CCCCN)C(=O)N[C@@H](Cc1ccccc1)CN(CC(N)=O)C(=O)CCN .
[A] 2

---

- System: Mucor racemosus
- assayName: Antifungal activity against Mucor racemosus MZ140 assessed as fungal growth inhibition by broth microdilution assay
- Assay type: functional
I'd be grateful if you could share measured MIC50 for these entries.
Your answer is read as µg/mL, so omit the unit and give the number.

[Q] For the compound CCCCCCCCCCCCCCCC(=O)N[C@@H](CCCN)C(=O)N[C@@H](Cc1ccccc1)CN(CC(N)=O)C(=O)CCN , report MIC50.
[A] 8

[Q] For the compound CCCCCCCCCCCCCCCCCC(=O)N[C@@H](CCCCN)C(=O)N[C@@H](Cc1ccccc1)CN(CC(N)=O)C(=O)CCN , report MIC50.
[A] 16

[Q] For the compound CCC(C)n1ncn(-c2ccc(N3CCN(c4ccc(OCC5COC(Cn6cncn6)(c6ccc(Cl)cc6Cl)O5)cc4)CC3)cc2)c1=O (centres undefined) [ITRACONAZOLE] , report MIC50.
[A] 1
